Reported Plant response rating, Foxtail, Green values for a set of compounds
tested on: foxtail, green (green foxtail, Setaria viridis); assay: Test D controlled growth environment herbicide test, pre- and postemergence; format: in vivo; conditions: Preemergence, 62 g ai/ha; scale 0 to 100 (0 no effect, 100 complete control)
measured_parameter: Plant response rating, Foxtail, Green

                           structure_string                               measured_on  numeric_value
0  Cc1ccc2sc(C)c(-c3c(OC(=O)OC(C)C)c(C)nn(C)c3=O)c2c1  foxtail, green (green foxtail, Setaria viridis)             35
1  Cc1nn(C)c(=O)c(-c2c(C)sc3ccc(Br)cc23)c1O  foxtail, green (green foxtail, Setaria viridis)              0
2  Cc1cc(C)c2sc(C)c(-c3c(O)c(C)nn(C)c3=O)c2c1  foxtail, green (green foxtail, Setaria viridis)            100
3    Cc1cc2ccccc2c(-c2c(O)c(C)nn(C)c2=O)c1C  foxtail, green (green foxtail, Setaria viridis)             60

###

system: galium (catchweed bedstraw, Galium aparine); experiment: Test C greenhouse herbicide test, pre- and postemergence; assay type: in vivo; conditions: Preemergence, 125 g ai/ha; scale 0 to 100, 0 is no effect, 100 is complete control
Description: […]
measured_parameter: Plant response rating, Galium

                           structure_string             measured_parameter  numeric_value
0  CC(=O)Oc1c(C)nn(C)c(=O)c1-c1c(C)sc2ccc(C(F)(F)F)cc12  Plant response rating, Galium             90
1  COC(=O)Oc1c(C)nn(C)c(=O)c1-c1c(C)sc2ccc(C)cc12  Plant response rating, Galium             95
2  Cc1ccc2ccccc2c1-c1c(O)c(C(F)(F)F)nn(C)c1=O  Plant response rating, Galium             95
3    Cc1nn(C)c(=O)c(-c2ccc(Br)c3ccccc23)c1O  Plant response rating, Galium             90
4  CCc1sc2c(C)cc(C)cc2c1-c1c(O)c(C)nn(C)c1=O  Plant response rating, Galium             95
5     Cc1nn(C)c(=O)c(-c2ccc(F)c3ccccc23)c1O  Plant response rating, Galium             98

###

Reported Plant response rating, Wheat, Winter values for a set of compounds
tested on: wheat, winter (winter wheat, Triticum aestivum); test: Test D controlled growth environment herbicide test, pre- and postemergence; type: in vivo; conditions: Preemergence, 125 g ai/ha; scale 0 to 100 (0 no effect, 100 complete control)
measured_parameter: Plant response rating, Wheat, Winter

                           structure_string                               measured_on  numeric_value
0  Cc1ccc2sc(Br)c(-c3c(O)c(C)nn(C)c3=O)c2c1  wheat, winter (winter wheat, Triticum aestivum)              0
1  Cc1ccc2ccccc2c1-c1c(OC(=O)OC(C)C)c(C)nn(C)c1=O  wheat, winter (winter wheat, Triticum aestivum)             25
2    CCc1sc2ccc(C)cc2c1-c1c(O)c(C)nn(C)c1=O  wheat, winter (winter wheat, Triticum aestivum)             10
3  Cc1cc(C)c2sc(C)c(-c3c(O)c(C)nn(C)c3=O)c2c1  wheat, winter (winter wheat, Triticum aestivum)              0
4    Cc1nn(C)c(=O)c(-c2ccc(Br)c3ccccc23)c1O  wheat, winter (winter wheat, Triticum aestivum)             20
5  Cc1ccc2sc(C)c(-c3c(OC(=O)OC(C)C)c(C)nn(C)c3=O)c2c1  wheat, winter (winter wheat, Triticum aestivum)              0

###

Reported Plant response rating, Beggarticks values for a set of compounds
test system: beggarticks (hairy beggarticks, Bidens pilosa); experiment: Test E greenhouse herbicide test, pre- and postemergence; type: in vivo; conditions: Postemergence, 31 g ai/ha; visual, scale 0 no effect to 100 complete control
Text: […]
measured_parameter: Plant response rating, Beggarticks

>>> print(df.to_string())
                                   compound  numeric_value
0  Cc1nn(C)c(=O)c(-c2cccc3ccc(Br)cc23)c1O [Compound 126]            100
1  CCCC(=O)Oc1c(C)nn(C)c(=O)c1-c1c(C)sc2ccc(C)cc12 [Compound 105]             90
2  Cc1cc2ccccc2c(-c2c(O)c(C)nn(C)c2=O)c1C [Compound 34]             90
3  CC(=O)Oc1c(C)nn(C)c(=O)c1-c1c(C)cc(C)c2ccccc12 [Compound 99]             80
4  Cc1ccc2sc(Br)c(-c3c(O)c(C)nn(C)c3=O)c2c1 [Compound 79]            100

###

Reported Plant response rating, Pigweed values for a set of molecules
system: pigweed (Amaranthus retroflexus); experiment: Test A greenhouse herbicide test, pre- and postemergence; type: in vivo; details: Postemergence, 125 g ai/ha; 0 to 100 scale where 0 is no effect and 100 is complete control
measured_parameter: Plant response rating, Pigweed

                                   molecule  numeric_value
0  CCOc1ccc2cccc(-c3c(O)c(C)nn(C)c3=O)c2c1 [Compound 92]             20
1  CC(=O)Oc1c(C)nn(C)c(=O)c1-c1c(C)sc2ccc(Cl)cc12 [Compound 108]             90
2  Cc1sc2ccc(C(F)(F)F)cc2c1-c1c(O)c(Cl)nn(C)c1=O [Compound 140]             70
3  COC(=O)Oc1c(C)nn(C)c(=O)c1-c1ccc(F)c2ccccc12 [Compound 130]            100
4  CCc1nn(CC)c(=O)c(-c2c(C)oc3ccc(C)cc23)c1O [Compound 64]              0

###

system: oat, wild (wild oat, Avena fatua); test: Test C greenhouse herbicide test, postemergence; type: in vivo; conditions: Postemergence, 250 g ai/ha; scale 0 to 100, 0 no effect, 100 complete control; 13 to 15 d
measured_parameter: Plant response rating, Oat, Wild

>>> print(df.to_string())
                           structure_string                        measured_on  numeric_value
0  Cc1ccc2sc(Br)c(-c3c(O)c(C)nn(C)c3=O)c2c1  oat, wild (wild oat, Avena fatua)             90
1  CC(=O)Oc1c(C)nn(C)c(=O)c1-c1c(C)sc2ccc(Cl)cc12  oat, wild (wild oat, Avena fatua)             90
2  CCCC(=O)Oc1c(C)nn(C)c(=O)c1-c1c(CC)sc2ccc(C)cc12  oat, wild (wild oat, Avena fatua)             35
3     Cc1nn(C)c(=O)c(-c2ccc(F)c3ccccc23)c1O  oat, wild (wild oat, Avena fatua)             95
4  CCC(=O)Oc1c(C)nn(C)c(=O)c1-c1ccc(F)c2ccccc12  oat, wild (wild oat, Avena fatua)             90
5       Cc1ccc2ccccc2c1-c1c(O)c(I)nn(C)c1=O  oat, wild (wild oat, Avena fatua)             95
6  CCC(=O)Oc1c(C)nn(C)c(=O)c1-c1ccc(Br)c2ccccc12  oat, wild (wild oat, Avena fatua)             95
7       Cn1nc(Br)c(O)c(-c2cccc3ccccc23)c1=O  oat, wild (wild oat, Avena fatua)             40
8  Cc1ccc2sc(C)c(-c3c(OC(=O)C(C)(C)C)c(C)nn(C)c3=O)c2c1  oat, wild (wild oat, Avena fatua)             90

###

tested on: foxtail, green (green foxtail, Setaria viridis); experiment: Test D controlled growth environment herbicide test, pre- and postemergence; format: in vivo; details: Postemergence, 125 g ai/ha; visual rating on scale 0 (no effect) to 100 (complete control), 14 to 21 d
Excerpt: […]
Reported Plant response rating, Foxtail, Green values for a set of compounds
measured_parameter: Plant response rating, Foxtail, Green

>>> print(df.to_string())
                           structure_string  numeric_value
0  Cc1ccc2sc(Br)c(-c3c(O)c(C)nn(C)c3=O)c2c1             75
1    Cc1nn(C)c(=O)c(-c2ccc(Br)c3ccccc23)c1O             55
2      Cc1ccc2ccccc2c1-c1c(O)c(Br)nn(C)c1=O             80
3     Cc1nn(C)c(=O)c(-c2ccc(F)c3ccccc23)c1O             50
4        Cc1nn(C)c(=O)c(-c2cccc3ccccc23)c1O             65
5  Cc1nn(C)c(=O)c(-c2c(C)sc3c(C)cc(Cl)cc23)c1O             95
6  CC(=O)Oc1c(C)nn(C)c(=O)c1-c1c(C)sc2ccc(Cl)cc12             75
7    Cc1cc2ccccc2c(-c2c(O)c(C)nn(C)c2=O)c1C             55
8  Cc1ccc2sc(C)c(-c3c(OC(=O)OC(C)C)c(C)nn(C)c3=O)c2c1             90
9  CCc1sc2c(C)cc(C)cc2c1-c1c(O)c(C)nn(C)c1=O             75
